# Tested on: QSK
# Setup Conditions: concentration: 1 μM, replicates: in singlicate; n = 1;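 note: KINOMEscan kinase panel screen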
Here the recorded %Inh is given for each entry.
Recorded Metric: %Inh (%)

Molecule | Measurement Target | Recorded Measurement
COc1cc2c(cc1OC[C@@H](O)CO)ncc1c3ccc(C#N)cc3[nH]c21 | QSK | 8
Cn1cc(-c2ccc3c(c2)CCN3C(=O)Cc2ccccc2Cl)c2c(N)ncnc21 | QSK | 23
Fc1ccc(-c2ncn(CCCN3CCOCC3)c2-c2cccnc2)cc1 | QSK | 0
C[C@@H](Oc1cc(-n2cnc3ccc(NC(=O)NC(C)(C)C)cc32)sc1C(N)=O)c1ccccc1Cl | QSK | 0
NS(=O)(=O)CCc1cccc(Nc2nccc(-c3c(-c4cccc(NC(=O)c5c(F)cccc5F)c4)nn4ccccc34)n2)c1 | QSK | 0
Nc1nc(-c2ccc3c(N)n[nH]c3c2)cc(N2CCCC2)n1 | QSK | 0
Cc1nnc(-c2ccc(C)c(-c3ccc(C(=O)Nc4ccc(NS(C)(=O)=O)cc4)cc3)c2)o1 | QSK | 0
CCn1cnc2c(N)ncnc21 | QSK | 13
O=C1NC(=O)C(N2CCc3ccccc32)=C1c1cccc(Cl)c1 | QSK | 0
NCC(NC(=O)c1cc(-c2cn[nH]c2)c(-c2ccnc3[nH]ccc23)s1)c1ccccc1.O=C(O)C(F)(F)F.O=C(O)C(F)(F)F (centres unmarked) | QSK | 9
COc1cc2ncn(-c3cc(OCc4sccc4Cl)c(C(N)=O)s3)c2cc1OC | QSK | 7
Nc1nccc(-c2c(-c3ccc(F)cc3)ncn2C2CCN(CC(F)(F)F)CC2)n1 | QSK | 0
O=c1cc(N2CCOCC2)nc2n(Cc3cccc4ccccc34)ccn12 | QSK | 7
Cc1nnc(-c2ccc3ncc(-c4ccc(S(C)=O)cc4)n3c2)o1 (centres unmarked) | QSK | 0
Fc1ccc(-c2nn3c(OCC(F)(F)F)cccc3c2-c2ccncc2)cc1 | QSK | 0
O=c1cc(N2CCOCC2)nc2n(Cc3cccc(Cl)c3Cl)c(C3CC3)nn12 | QSK | 0
Cc1cn2c(=O)cc(N3CCOCC3)nc2n1Cc1cccc(Cl)c1Cl | QSK | 0

###

# System: JNK3
# Construct: gene MAPK10
# Setup Conditions: concentration: 1 μM, replicates: in singlicate; n = 1
Here the recorded %Inh is given for each entry.

Smiles Structure | Units Symbol | %Inh
NS(=O)(=O)CCc1cccc(Nc2nccc(-c3c(-c4cccc(NC(=O)c5c(F)cccc5F)c4)nn4ccccc34)n2)c1 | % | 16
CN(C1=C(c2ccccc2)C(=O)NC1=O)c1ccccc1 | % | 15
CC(=O)Nc1ccc(COc2ccc(Nc3ccnc4cc(-c5ccccn5)ccc34)cc2)cc1.Cl | % | 9
COCCNC(=O)c1ccc(-c2cc(C(=O)NC3CC3)cc(F)c2C)cc1 | % | 19

###

# Tested on: ERBB2
# Setup Conditions: concentration: 1 μM, replicates: in singlicate; n = 1

Molecule | Measurement Target | %Inh (%)
Cc1cn2c(=O)cc(N3CCOCC3)nc2n1Cc1cccc(Cl)c1Cl [GSK2334006] | ERBB2 | 20
CN(C1=C(c2ccccc2)C(=O)NC1=O)c1ccccc1 [SB-334860] | ERBB2 | 29
Cc1ccc(NC(=O)c2ccnc(N3CCN(C)CC3)c2)cc1-c1ccc(C(=O)NCC2CC2)cc1 [GW775604] | ERBB2 | 0
O=C(NCCNc1ccnc(Nc2ccc(F)cc2)n1)Nc1ccccc1F [GSK1379880] | ERBB2 | 9
Cc1nnc(-c2ccc3occ(-c4ccc(C(C)O)cc4)c3c2)o1 (stereo not drawn) | ERBB2 | 0
COC(=O)Nc1nc2cc(Oc3ccc(NC(=O)Nc4cc(F)ccc4F)cc3)ccc2[nH]1.Cl [GW701424] | ERBB2 | 43
Cl.Oc1cccc(Nc2ccnc3cc(-c4ccncc4)ccc23)c1 [GW494601] | ERBB2 | 0
Nc1nccc(-c2c(-c3ccc(F)cc3)ncn2C2CCN(CC(F)(F)F)CC2)n1 [SB-236560] | ERBB2 | 59
CN1c2ccc(CNc3ccc(F)cc3)cc2-c2c(cnn2C)S1(=O)=O | ERBB2 | 13
Cc1c2ccc(N(C)c3ccnc(Nc4cccc(S(N)(=O)=O)c4)n3)cc2nn1Cc1ccccc1.Cl.Cl [GW787226] | ERBB2 | 0
O=c1cc(N2CCOCC2)nc2n(Cc3cccc(F)c3)ccn12 [GSK2297430] | ERBB2 | 0
O=C1Cc2cc(Nc3nc(NCc4cccc(S(=O)(=O)C(F)(F)F)c4)ncc3C(F)(F)F)ccc2N1 | ERBB2 | 6
CCn1cnc2c(N)ncnc21 [GW345098] | ERBB2 | 0
CCCCCc1nc2c(N)ncnc2n1CCCCC [SKF-97255] | ERBB2 | 4
O=c1cc(N2CCOCC2)nc2n(Cc3cccc(Cl)c3Cl)c(C3CC3)nn12 [GSK2358994] | ERBB2 | 0

###

Here the recorded %Inh is given for each entry.
# Tested on: IRAK1
# Setup Conditions: concentration: 1 μM, replicates: in singlicate; n = 1

Compound | Measurement Target | %Inh [%]
COc1cc2ncn(-c3cc(OCc4sccc4Cl)c(C(N)=O)s3)c2cc1OC | IRAK1 | 35
CN1c2ccc(CNc3ccc(F)cc3)cc2-c2c(cnn2C)S1(=O)=O | IRAK1 | 0
COc1ccc(S(=O)(=O)NC2CCN(c3cc(C)nc(Nc4cccc(C#N)c4)n3)CC2)cc1.O=C(O)C(F)(F)F | IRAK1 | 0
Cc1c(Cn2c(C)nn3c(=O)cc(N4CCOC(C)C4)nc23)cccc1C(F)(F)F (centres unmarked) | IRAK1 | 0
NS(=O)(=O)c1cccc(-c2ccc3nccc(-c4cccc(S(N)(=O)=O)c4)c3c2)c1 | IRAK1 | 12

###

# Test system: SGK3
# Setup Conditions: concentration: 1 μM, replicates: in singlicate; n = 1

Compound | Units Symbol | %Inh
COc1ccc(Nc2nccc(N3CCC(NC(=O)Nc4cc(C)ccc4C)C3)n2)cc1 (stereo not shown) [GSK1379741] | % | 0
CN(C1=C(c2ccccc2)C(=O)NC1=O)c1ccccc1 [SB-334860] | % | 16
CNc1ncnc2[nH]ncc12 [SKF-18355] | % | 0
COC(=O)Nc1nc2cc(Oc3ccc(NC(=O)Nc4cc(F)ccc4F)cc3)ccc2[nH]1.Cl [GW701424] | % | 12
COc1cc2c(cc1OC[C@@H](O)CO)ncc1c3ccc(C#N)cc3[nH]c21 | % | 38
Cc1cccc(-c2nc(-c3ccc(S(C)(=O)=O)cc3)sc2-c2ccncc2)c1 | % | 12
O=c1cc(N2CCOCC2)nc2n(Cc3cccc(F)c3)ccn12 [GSK2297430] | % | 0

###

# Test system: GRK7
# Setup Conditions: concentration: 1 μM, replicates: in singlicate; n = 1

Compound | Measurement Target | %Inh (%)
COc1cc2c(cc1OCCN1CCN(C)CC1)ncc1c3ccc(C#N)cc3[nH]c21 | GRK7 | 0
Fc1ccc(-c2ncn(CCCN3CCOCC3)c2-c2cccnc2)cc1 | GRK7 | 0
c1ccc(-c2cc(-c3c[nH]nc3-c3ccccn3)ccn2)cc1 | GRK7 | 0
Cc1nnc(-c2ccc3ncc(-c4ccc(S(C)=O)cc4)n3c2)o1 (stereo not drawn) | GRK7 | 16
N#Cc1ccc(-c2cc(-c3c[nH]nc3-c3ccccn3)ccn2)cc1 | GRK7 | 0
NCC(NC(=O)c1cc(-c2cn[nH]c2)c(-c2ccnc3[nH]ccc23)s1)c1ccccc1.O=C(O)C(F)(F)F.O=C(O)C(F)(F)F (stereo not drawn) | GRK7 | 51
Fc1ccc(-c2ncn(CCCN3CCOCC3)c2-c2ccccn2)cc1 | GRK7 | 0
COc1cc2c(cc1OC[C@@H](O)CO)ncc1c3ccc(C#N)cc3[nH]c21 | GRK7 | 5
O=C1NC(=O)C(N2CCc3ccccc32)=C1c1cccc(Cl)c1 | GRK7 | 5
O=C(NCCNc1ccnc(Nc2ccc(F)cc2)n1)c1cc2ccccc2s1 | GRK7 | 0
O=c1cc(N2CCOCC2)nc2n(Cc3cccc(Cl)c3Cl)c(C3CC3)nn12 | GRK7 | 0
Cc1nnc(-c2ccc3occ(-c4ccc(C(C)O)cc4)c3c2)o1 (stereo not drawn) | GRK7 | 11
COc1ccc(Nc2ncc(C#N)c(Nc3ccccc3C(N)=O)n2)cc1N1CCN(C)CC1.Cl | GRK7 | 46
Cl.Oc1cccc(Nc2ccnc3cc(-c4ccncc4)ccc23)c1 | GRK7 | 0
N#Cc1c(N2CCOCC2)sc(-c2ccn[nH]2)c1-c1ccc(Cl)cc1 | GRK7 | 26
Cc1c(Cn2c(C)nn3c(=O)cc(N4CCOC(C)C4)nc23)cccc1C(F)(F)F (stereo not drawn) | GRK7 | 0
COc1ccc(Nc2nccc(N3CCC(NC(=O)Nc4cccc(C(C)=O)c4)C3)n2)cc1 (stereo not drawn) | GRK7 | 0
Nc1nc(-c2ccc3c(N)n[nH]c3c2)cc(N2CCCC2)n1 | GRK7 | 0
c1ccc(-c2n[nH]cc2-c2ccnc3ccccc23)nc1 | GRK7 | 23
Cc1c2ccc(N(C)c3ccnc(Nc4cccc(S(N)(=O)=O)c4)n3)cc2nn1Cc1ccccc1.Cl.Cl | GRK7 | 0
CCc1ccnc(/C=C/c2n[nH]c3cc(Sc4ccccc4C(=O)NC)ccc23)c1 | GRK7 | 0
O=C(Nc1cccc(-c2nn3ncccc3c2-c2ccnc(Nc3cccc(C(F)(F)F)c3)n2)c1)c1c(F)cccc1F | GRK7 | 0
Cn1cc(-c2ccc3c(c2)CCN3C(=O)Cc2ccccc2Cl)c2c(N)ncnc21 | GRK7 | 0
COc1ccc(S(=O)(=O)NC2CCN(c3cc(C)nc(Nc4cccc(C#N)c4)n3)CC2)cc1.O=C(O)C(F)(F)F | GRK7 | 0

Values were extracted from paper PMC5540273.
